Details: 323.15 K; 30000 kPa; Liquid; Vibrating wire viscometry
measuredQuantity: viscosity (mPa·s)

compound	viscosity (mPa·s)
CCCOC(=O)CCCCC(=O)OCCC [dipropyl hexanedioate]	3.157

(A) CCCCOC(=O)CCCCC(=O)OCCCC [dibutyl hexanedioate]
(B) COC(=O)CCCCC(=O)OC [dimethyl 1,6-hexanedioate]
Of the two listed items, which has the higher viscosity? First: A Second: B # answer = label of selected item A
(A: 3.754 mPa·s, B: 2.254 mPa·s)

----------
Conditions: 363.15 K; 40000 kPa; Liquid; Vibrating wire viscometry
measuredQuantity: viscosity (mPa·s)

compound	viscosity (mPa·s)
CCOC(=O)CCCCC(=O)OCC [diethyl hexanedioate]	1.453
CCCOC(=O)CCCCC(=O)OCCC [dipropyl hexanedioate]	1.798

(A) COC(=O)CCCCC(=O)OC [dimethyl 1,6-hexanedioate]
(B) CCCCOC(=O)CCCCC(=O)OCCCC [dibutyl hexanedioate]
# compare viscosity for A vs B ; return the one with the smaller value // respond with label for picked entry A
(A: 1.332 mPa·s, B: 2.108 mPa·s)

----------
Settings: 353.15 K; 10000 kPa; Liquid; Vibrating wire viscometry
measuredQuantity: viscosity (mPa·s)

compound	measuredQuantity	readoutNumber
CCCCOC(=O)CCCCC(=O)OCCCC [dibutyl hexanedioate]	viscosity	1.839
CCOC(=O)CCCCC(=O)OCC [diethyl hexanedioate]	viscosity	1.292
COC(=O)CCCCC(=O)OC [dimethyl 1,6-hexanedioate]	viscosity	1.221
CCCOC(=O)CCCCC(=O)OCCC [dipropyl hexanedioate]	viscosity	1.577

----------
Conditions: 333.15 K; 100 kPa; Liquid; Vibrating wire viscometry
measuredQuantity: viscosity (mPa·s)

compound	viscosity (mPa·s)
CCOC(=O)CCCCC(=O)OCC [diethyl hexanedioate]	1.579
CCCCOC(=O)CCCCC(=O)OCCCC [dibutyl hexanedioate]	2.282
COC(=O)CCCCC(=O)OC [dimethyl 1,6-hexanedioate]	1.503
CCCOC(=O)CCCCC(=O)OCCC [dipropyl hexanedioate]	1.954

----------
Details: 323.15 K; 15000 kPa; Liquid; Vibrating wire viscometry
measuredQuantity: viscosity (mPa·s)

(A) CCOC(=O)CCCCC(=O)OCC [diethyl hexanedioate]
(B) CCCCOC(=O)CCCCC(=O)OCCCC [dibutyl hexanedioate]
Compare reported viscosity values for A and B . Which is lower? I would appreciate it if you answered with the label of your choice. A

----------
Details: 363.15 K; 1000 kPa; Liquid; Vibrating wire viscometry
measuredQuantity: viscosity (mPa·s)

compound	viscosity [mPa·s]
COC(=O)CCCCC(=O)OC [dimethyl 1,6-hexanedioate]	0.9971
CCCCOC(=O)CCCCC(=O)OCCCC [dibutyl hexanedioate]	1.452
CCOC(=O)CCCCC(=O)OCC [diethyl hexanedioate]	1.041
CCCOC(=O)CCCCC(=O)OCCC [dipropyl hexanedioate]	1.253

----------
Conditions: 323.15 K; 5000 kPa; Liquid; Vibrating wire viscometry
measuredQuantity: viscosity (mPa·s)

A selection of reference data follows.
molecule	viscosity / mPa·s
CCCOC(=O)CCCCC(=O)OCCC [dipropyl hexanedioate]	2.464
COC(=O)CCCCC(=O)OC [dimethyl 1,6-hexanedioate]	1.85

(I) CCCCOC(=O)CCCCC(=O)OCCCC [dibutyl hexanedioate]
(II) CCOC(=O)CCCCC(=O)OCC [diethyl hexanedioate]
Please choose the item with the lower viscosity value from this pair: I and II Field: selected label. Fill in the label of the entry you choose. II
(II: 1.961 mPa·s, I: 2.9 mPa·s)
